Reported inhibition values for the following compounds.
Molecular target: MAP kinase-activated protein kinase 2 (Homo sapiens) (UniProt P49137)
Sequence (P49137 whole entry, looked up): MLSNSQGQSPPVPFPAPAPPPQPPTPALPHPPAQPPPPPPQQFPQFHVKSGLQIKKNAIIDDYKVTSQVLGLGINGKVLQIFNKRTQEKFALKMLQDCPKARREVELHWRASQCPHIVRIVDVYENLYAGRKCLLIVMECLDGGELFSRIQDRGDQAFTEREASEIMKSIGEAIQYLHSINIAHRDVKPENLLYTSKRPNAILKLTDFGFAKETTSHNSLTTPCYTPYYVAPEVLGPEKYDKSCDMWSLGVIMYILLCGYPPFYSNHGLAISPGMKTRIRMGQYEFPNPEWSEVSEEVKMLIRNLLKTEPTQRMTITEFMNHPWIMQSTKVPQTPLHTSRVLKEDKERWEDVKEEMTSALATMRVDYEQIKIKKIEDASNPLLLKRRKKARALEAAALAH
Assay: Inhibition of MK2 (unknown origin) at 30 uM by microfluidic mobility shift assay relative to control
State just the number; it will be interpreted in %.

Write down inhibition measured for item c1nc(N2CCCC3(CCCNC3)C2)c2nc[nH]c2n1 (configuration not stated)
11

====

Target: Serine/threonine-protein kinase Chk2 (Homo sapiens, UniProt O96017)
Sequence (O96017 whole entry): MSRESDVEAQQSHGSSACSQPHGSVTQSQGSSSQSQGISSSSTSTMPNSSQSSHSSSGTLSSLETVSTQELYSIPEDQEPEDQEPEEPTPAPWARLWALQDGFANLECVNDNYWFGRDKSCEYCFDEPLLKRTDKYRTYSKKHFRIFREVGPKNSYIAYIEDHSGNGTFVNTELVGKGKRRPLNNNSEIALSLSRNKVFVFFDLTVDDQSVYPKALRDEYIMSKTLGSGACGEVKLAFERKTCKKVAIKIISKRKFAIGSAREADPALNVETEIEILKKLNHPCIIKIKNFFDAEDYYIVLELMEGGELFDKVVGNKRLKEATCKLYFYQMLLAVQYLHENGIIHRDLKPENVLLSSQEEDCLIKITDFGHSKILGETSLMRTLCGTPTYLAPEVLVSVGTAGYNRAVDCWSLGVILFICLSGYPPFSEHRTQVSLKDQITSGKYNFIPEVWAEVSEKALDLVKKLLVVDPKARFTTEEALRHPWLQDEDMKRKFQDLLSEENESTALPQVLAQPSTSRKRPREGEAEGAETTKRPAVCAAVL
PROPERTY_LABEL: pIC50
Lab note: report pIC50 as minus log10 of the concentration in molar units, number only.

Provide pIC50, tested on Serine/threonine-protein kinase Chk2 (Homo sapiens, UniProt O96017), for c1nc(N2CCC3(CCCCN3)CC2)c2nc[nH]c2n1 .
4.39

Value source: ChEMBL document CHEMBL2417369
